Data origin: ChEMBL document CHEMBL4699515

I'd appreciate it if you could supply Activity values for the items below.
Test: Induction of beta cells proliferation in 5 days post fertilize Tg(-1.2ins:H2BmCherry) zebra fish larvae assessed as beta cell number at 10 uM after 24 hrs by confocal microscopic method (reference value: 35 +/- 1)
Assay type: functional, Danio rerio, Pancreatic beta cell
Returns: the value as a bare number; no unit string appended.

Which measured Activity value corresponds to `C=CC(C)(C)c1c(C)c(CC=C(C)C)c(O)c2c(=O)c3c(CO)cccc3oc12` ?
40

Field entry: `CC(C)=CCc1c(C)cc2oc3cccc(C4O[C@H](C)[C@@H](C)O4)c3c(=O)c2c1O`
39

Request: `C=CC(C)(C)c1cc(CC=C(C)C)c(O)c2c(=O)c3c(CO)cc(C)cc3oc12`
40

Same again, this time with `C[C@]12C=CC(=O)C=C1CC[C@@H]1[C@@H]2[C@@H](O)C[C@@]2(C)[C@H]1CC[C@]2(O)C(=O)CO`
40
